Reported z-score by item:
# measurementDescription: basal HepG2 mitochondrial membrane potential changes, profiling panel, cell-based, JC-1 fluorescence, 24 h, 100 nL compound (AID 1167); further: test concentration not given here
# conditionDetails: higher = more signal
resultType: z-score

- compound: "N#Cc1ccc(C(O)C2C=CC3C(=O)N(c4ccccc4)C(=O)C3N2Nc2ccccc2)cc1 (stereo not drawn)"
  resultType: "z-score"
  quantitativeResult: -0.651
- compound: "COCCOC(=O)N1C(=O)[C@@]2(c3cc(C#CC4=CCCCC4)ccc31)[C@H](c1ccccc1OCCO)N1[C@H](c3ccccc3)[C@H](c3ccccc3)OC(=O)[C@H]1[C@@H]2C(=O)Nc1nc2ccccc2s1"
  resultType: "z-score"
  quantitativeResult: -2.68
- compound: "COCCOC(=O)N1C(=O)[C@@]2(c3cc(C#CC4=CCCCC4)ccc31)[C@H](c1ccc(OCCO)cc1)N1[C@H](c3ccccc3)[C@H](c3ccccc3)OC(=O)[C@H]1[C@@H]2C(=O)N1CCN(c2ncccn2)CC1"
  resultType: "z-score"
  quantitativeResult: 0.955
- compound: "O=C1OCC=C[C@H]2OC34C=CCN(Cn5nnc6ccccc65)C(=O)[C@H]3N(CCCO)C(=O)[C@@H]4[C@@H]12 (stereo partly drawn)"
  resultType: "z-score"
  quantitativeResult: -0.541
- compound: "C[C@@H]1NC(=O)[C@@]23C(=O)N[C@@H](Cc4ccccc4)C2[C@H](C)[C@@]2(C)O[C@H]2C3/C=C/C/C=C\\CNC(=O)[C@@H]2CCCN2C1=O (stereo partly drawn)"
  resultType: "z-score"
  quantitativeResult: -0.175
- compound: "O=C1O[C@H](c2ccccc2)[C@H](c2ccccc2)N2[C@H]1[C@@H](C(=O)Nc1nc3ccccc3s1)[C@]1(C(=O)Nc3ccc(C#CC4(O)CCCCCC4)cc31)[C@H]2c1ccccc1OCCO"
  resultType: "z-score"
  quantitativeResult: -2.82
- compound: "CCCCCCCCCCC(O)C1C=CC2C(=O)N(C)C(=O)C2N1Nc1ccc([N+](=O)[O-])cc1[N+](=O)[O-] (stereo not drawn)"
  resultType: "z-score"
  quantitativeResult: 0.693
- compound: "O=C1O[C@@H](c2ccccc2)[C@@H](c2ccccc2)N2[C@@H](c3ccc(O)cc3)[C@]3(C(=O)Nc4ccc(C#CC5=CCCCC5)cc43)[C@@H](C(=O)NC[C@H](O)c3ccccc3)[C@H]12"
  resultType: "z-score"
  quantitativeResult: -2.26
- compound: "CC1=C[C@@]2(CO)C(=O)[C@]3(CO3)[C@@H]1[C@H]1[C@]2(C)C=C(CO)C(=O)[C@]12CO2"
  resultType: "z-score"
  quantitativeResult: -0.38
- compound: "O=C1c2ccccc2[C@](Cc2ccccc2I)(C(=O)NCC(F)(F)F)[C@H](c2ccc(CO)cc2)N1C1CCCCC1"
  resultType: "z-score"
  quantitativeResult: 1.3
- compound: "COc1ccc([Si](C)(C)[C@@H]2[C@@H](CC(=O)N(CCO)Cc3ccccc3)O[C@]3(C(=O)N(Cc4cccc(N5CCOC5=O)c4)c4ccccc43)[C@H]2C)cc1"
  resultType: "z-score"
  quantitativeResult: -0.0766
- compound: "CC(C)C(=C=CC[C@H](O)c1ccc(OCCO)cc1)C[C@H](O)c1ccccn1"
  resultType: "z-score"
  quantitativeResult: 0.421
- compound: "COc1ccc(-c2nc(-c3ccccc3)c3c(c2C)CO[Si]3(C(C)C)C(C)C)cn1"
  resultType: "z-score"
  quantitativeResult: -0.922
